Test system: 633275-114-R-J1-PDC complex spheroids, viability;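 note: spheroids exposed to the agents for seven days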
Assay: Anticancer human tumor 633275-114-R-J1-PDC patient-derived endometrial adenocarcinoma cell line growth inhibition [GQUAD]
Conditions: second compound 3.16 µM; first compound 10 µM; active compounds read low
Please use y for viability, T/C under 20% and n for everything else, ties included.

Illustrative cases are given below, each with its answer.
COc1ncnc(C2CC2)c1-c1ncc2cnn(Cc3ccc(-c4nc(C(F)(F)F)cn4C(C)C)cc3)c2n1 + Cc1cnc(CNC(=O)c2c(=O)c3ccc(N4CCCN(C)CC4)nc3n3c2sc2ccccc23)cn1	n
CC1COCCN1c1cc(C2(S(C)(=N)=O)CC2)nc(-c2ccnc3[nH]ccc23)n1 (stereo not given) + Cc1cnc(CNC(=O)c2c(=O)c3ccc(N4CCCN(C)CC4)nc3n3c2sc2ccccc23)cn1	n
CC1COCCN1c1cc(C2(O)CC3CCC(C2)O3)c2cnn(-c3ccn[nH]3)c2n1 (stereo not given) + Cc1[nH]c2ccc(F)cc2c1-c1nc2c3cccnc3c3ncccc3c2[nH]1	y
CC1COCCN1c1cc(-c2ccnn2C)c2ccnc(-c3ccn[nH]3)c2n1 (stereo not given) + Cc1[nH]c2ccc(F)cc2c1-c1nc2c3cccnc3c3ncccc3c2[nH]1	y

Lab note: viability, T/C threshold 20%. Does this compound come in strictly under it? CCCS(=O)(=O)Nc1ccc(F)c(C(=O)c2c[nH]c3ncc(-c4ccc(Cl)cc4)cc23)c1F + CN(C)c1ccc(Nc2c3ccc(NC(=O)CCN4CCCC4)cc3nc3cc(NC(=O)CCN4CCCC4)ccc23)cc1
n
